Every entry's value here was drawn from patent US7767659B2.

- Test system: SK-BR-3
- assay text: Inhibition of cells growth by colorimetric assay (SRB)
- condition info: Homo sapiens, SK-BR-3, 48 h, read-out: LC50 SK-BR3
recorded endpoint: CC50 (µM)
Entry rule: numbers only, all in µM.

Example entries and their recorded answers appear below.
compound	result units	reported
C=CCN1[C@@H]2c3c(cc(C)c(OC)c3O)C[C@H]1[C@H](C#N)N1C2[C@@H]2SCC(N)C(=O)OC[C@H]1c1c3c(c(C)c(OC(C)=O)c12)OCO3 (stereo partly shown)	µM	0.979
C=CCN1[C@@H]2c3c(cc(C)c(OC)c3OC(=O)/C=C/c3ccccc3)C[C@H]1[C@H](C#N)N1C2[C@@H]2SCC(NC(=O)C(F)(F)F)C(=O)OC[C@H]1c1c3c(c(C)c(OC(C)=O)c12)OCO3 (stereo partly shown)	µM	11.4
C=CCN1[C@@H]2c3c(cc(C)c(OC)c3O)C[C@H]1[C@H](C#N)N1C2[C@@H]2SCC(NC(=O)C(F)(F)F)C(=O)OC[C@H]1c1c3c(c(C)c(OC(C)=O)c12)OCO3 (stereo partly shown)	µM	8.64

## Task Tell me CC50 reported for C=CCN1[C@@H]2c3c(cc(C)c(OC)c3O)C[C@H]1[C@H](C#N)N1C2[C@@H]2SC[C@H](NC(=O)c3cc4ccccc4oc3=O)C(=O)OC[C@H]1c1c3c(c(C)c(OC(C)=O)c12)OCO3 (stereo partly shown)
## Result 1.22

====

- System: PANC-1
- assay text: Inhibition of cells growth by colorimetric assay (SRB)
- condition info: Homo sapiens, PANC-1, 48 h, read-out: PANC-1 LC50
recorded endpoint: CC50 (µM)
Entry rule: numbers only, all in µM.

molecule	result units	reported
COc1c(C)cc2c(c1O)[C@H]1N[C@@H](C2)[C@H](O)N2C1[C@@H]1SCC(=O)C(=O)OC[C@H]2c2c3c(c(C)c(OC(C)=O)c21)OCO3 (some centres unmarked)	µM	2.15

## Task Tell me CC50 reported for C=CCN1[C@@H]2c3c(cc(C)c(OC)c3O)C[C@H]1[C@H](C#N)N1C2[C@@H]2SC[C@]3(NCCc4cc(OC(=O)OC(C)(C)C)c(OC)cc43)C(=O)OC[C@H]1c1c3c(c(C)c(OC(=O)/C=C/c4ccccc4)c12)OCO3 (some centres unmarked)
## Result 10.2

## Task Tell me CC50 reported for CCCCCCCC(=O)Oc1c(C)c2c(c3c1[C@H]1SC[C@]4(NCCc5cc(O)c(OC)cc54)C(=O)OC[C@@H]3N3C1[C@@H]1N[C@@H](Cc4cc(C)c(OC)c(O)c41)[C@@H]3O)OCO2 (some centres unmarked)
## Result 5.31

## Task Tell me CC50 reported for C=CCN1[C@@H]2c3c(cc(C)c(OC)c3O)C[C@H]1[C@H](C#N)N1C2[C@@H]2SC[C@]3(NCCc4c3[nH]c3ccc(OC)cc43)C(=O)OC[C@H]1c1c3c(c(C)c(OC(C)=O)c12)OCO3 (some centres unmarked)
## Result 12

## Task Tell me CC50 reported for COC1=C(C)C(=O)C2=C(C1=O)[C@@H]1C3[C@@H]4SC[C@]5(NCCc6c5[nH]c5ccccc65)C(=O)OC[C@@H](c5c6c(c(C)c(OC(C)=O)c54)OCO6)N3[C@@H](O)[C@H](C2)N1C (some centres unmarked)
## Result 13
